Method summary: Biodistribution of ^111In-labeled peptides in B16-F1 melanoma-bearing mice
Type: in vivo, mouse (B6D2F1)
Condition parameters: female, B6D2F1, mouse, iv, 185 kBq, total radioactivity; 4 h postinjection; mean tumor uptake divided by mean kidney uptake
Non-standard residues stand in square brackets, D forms with d. Residues, ends and D or L forms follow the SMILES beside them. *: point of attachment. DOTA = O=C(O)CN1CCN(CC(=O)O)CCN(CC(=O)*)CCN(CC(=O)O)CC1; pY = N[C@@H](Cc1ccc(OP(=O)(O)O)cc1)C(=O)O; Nle = CCCC[C@H](N)C(=O)O
Measurement type: tissue to tissue ratio at 4 h

Example entries begin here.
- Compound: "CCCC[C@H](NC(C)=O)C(=O)N[C@@H](CC(=O)O)C(=O)N[C@@H](Cc1c[nH]cn1)C(=O)N[C@H](Cc1ccccc1)C(=O)N[C@@H](CCCNC(=N)N)C(=O)N[C@@H](Cc1c[nH]c2ccccc12)C(=O)NCC(=O)N[C@@H](CCCCNC(=O)CN1CCN(CC(=O)O)CCN(CC(=O)O)CCN(CC(=O)O)CC1)C(N)=O [[^111In]DOTA-NAP-amide, metal not drawn, reference compound]"
  tissue to tissue ratio at 4 h: 1.63
- Compound: "CCCC[C@H](NC(C)=O)C(=O)N[C@@H](CC(=O)O)C(=O)N[C@@H](Cc1c[nH]cn1)C(=O)N[C@H](Cc1ccccc1)C(=O)N[C@@H](CCCNC(=N)N)C(=O)N[C@@H](Cc1c[nH]c2ccccc12)C(=O)NCC(=O)N[C@@H](CCCCNC(=O)CN1CCN(CC(=O)O)CCN(CC(=O)O)CCN(CC(=O)O)CC1)C(=O)N[C@H](CC(=O)O)C(=O)N[C@H](CC(=O)O)C(=O)O [[^111In]DOTA-NAP-D-Asp-D-Asp, metal not drawn] (Ac-[Nle]DH[dF]RWGK(DOTA)[dD][dD]-OH; N-terminus and C-terminus assumed)"
  tissue to tissue ratio at 4 h: 0.32

The record that follows has no tissue to tissue ratio at 4 h shown yet.
q: For the compound CCCC[C@H](NC(=O)[C@H](Cc1ccc(OP(=O)(O)O)cc1)NC(=O)CNC(=O)CN1CCN(CC(=O)O)CCN(CC(=O)O)CCN(CC(=O)O)CC1)C(=O)N[C@@H](CC(=O)O)C(=O)N[C@@H](Cc1c[nH]cn1)C(=O)N[C@H](Cc1ccccc1)C(=O)N[C@@H](CCCNC(=N)N)C(=O)N[C@@H](Cc1c[nH]c2ccccc12)C(N)=O [[^111In]DOTA-Phospho-MSH2-9, metal not drawn] ({DOTA}-G[pY][Nle]DH[dF]RW-NH2) , what tissue to tissue ratio at 4 h is on record?
a: 2.75
